Data credit: paper PMC13397619

B1: NLV2 TCR alpha chain (CDR3α only) (parent)
chain: AGPMKTSYDKVI
partner: NLVGMVATV

variants of: B1; test: T-Switch: Jurkat TCRβ−/− cells expressing a CDR3 saturation-mutagenesis library, stained with two peptide-HLA-A*02:01 tetramers (original and novel peptide) plus anti-CD3, FACS-sorted into four gates, gDNA sequenced; conditions: with HLA-A*02:01 with peptide … (NLV 2-2, the original bait), tetramers 1 µg/mL, 30 min on ice, DP and SW gates expanded about 10 days between rounds ('two to three rounds of selection' in the Methods), gate SP: higher = more of the variant in the gate that binds the original peptide and not the novel one = retained original binding. Fold enrichment of the CDR3 variant in one FACS gate of a two-tetra, unresolved parent, parent is a CDR3 fragment, scale: fold enrichment, numbering: sequential-on-construct, sequence …
ASSAY_READOUT: enrichment

[…] (CDR3 as printed); D9W derived by comparing it with the table's wild-type CDR3 AGPMKTSYDKVI = 0
[…] (CDR3 as printed); V11P derived by comparing it with the table's wild-type CDR3 AGPMKTSYDKVI = 0
[…] (CDR3 as printed); K10A derived by comparing it with the table's wild-type CDR3 AGPMKTSYDKVI = 0
[…] (CDR3 as printed); I12K derived by comparing it with the table's wild-type CDR3 AGPMKTSYDKVI = 8.2
[…] (CDR3 as printed); G2P derived by comparing it with the table's wild-type CDR3 AGPMKTSYDKVI = 0.351
[…] (CDR3 as printed); K10I derived by comparing it with the table's wild-type CDR3 AGPMKTSYDKVI = 0
[…] (CDR3 as printed); I12L derived by comparing it with the table's wild-type CDR3 AGPMKTSYDKVI = 0.259
[…] (CDR3 as printed); I12E derived by comparing it with the table's wild-type CDR3 AGPMKTSYDKVI = 0.34
[…] (CDR3 as printed); S7G derived by comparing it with the table's wild-type CDR3 AGPMKTSYDKVI = 0
[…] (CDR3 as printed); Y8F derived by comparing it with the table's wild-type CDR3 AGPMKTSYDKVI = 0
[…] (CDR3 as printed); V11C derived by comparing it with the table's wild-type CDR3 AGPMKTSYDKVI = 0
[…] (CDR3 as printed); G2E derived by comparing it with the table's wild-type CDR3 AGPMKTSYDKVI = 0.387
[…] (CDR3 as printed); T6W derived by comparing it with the table's wild-type CDR3 AGPMKTSYDKVI = 0
[…] (CDR3 as printed); A1D derived by comparing it with the table's wild-type CDR3 AGPMKTSYDKVI = 0
[…] (CDR3 as printed); G2A derived by comparing it with the table's wild-type CDR3 AGPMKTSYDKVI = 0.952
[…] (CDR3 as printed); P3A derived by comparing it with the table's wild-type CDR3 AGPMKTSYDKVI = 0
[…] (CDR3 as printed); K10F derived by comparing it with the table's wild-type CDR3 AGPMKTSYDKVI = 0
[…] (CDR3 as printed); S7C derived by comparing it with the table's wild-type CDR3 AGPMKTSYDKVI = 0
[…] (CDR3 as printed); K5C derived by comparing it with the table's wild-type CDR3 AGPMKTSYDKVI = 0
[…] (CDR3 as printed); T6I derived by comparing it with the table's wild-type CDR3 AGPMKTSYDKVI = 9.21
[…] (CDR3 as printed); P3K derived by comparing it with the table's wild-type CDR3 AGPMKTSYDKVI = 0
[…] (CDR3 as printed); D9K derived by comparing it with the table's wild-type CDR3 AGPMKTSYDKVI = 0
[…] (CDR3 as printed); A1W derived by comparing it with the table's wild-type CDR3 AGPMKTSYDKVI = 0
[…] (CDR3 as printed); T6C derived by comparing it with the table's wild-type CDR3 AGPMKTSYDKVI = 0
[…] (CDR3 as printed); D9V derived by comparing it with the table's wild-type CDR3 AGPMKTSYDKVI = 0
[…] (CDR3 as printed); Y8L derived by comparing it with the table's wild-type CDR3 AGPMKTSYDKVI = 0
[…] (CDR3 as printed); S7W derived by comparing it with the table's wild-type CDR3 AGPMKTSYDKVI = 0
[…] (CDR3 as printed); Y8W derived by comparing it with the table's wild-type CDR3 AGPMKTSYDKVI = 0
[…] (CDR3 as printed); Y8R derived by comparing it with the table's wild-type CDR3 AGPMKTSYDKVI = 0
[…] (CDR3 as printed); P3R derived by comparing it with the table's wild-type CDR3 AGPMKTSYDKVI = 0
[…] (CDR3 as printed); S7K derived by comparing it with the table's wild-type CDR3 AGPMKTSYDKVI = 0
[…] (CDR3 as printed); G2L derived by comparing it with the table's wild-type CDR3 AGPMKTSYDKVI = 0
[…] (CDR3 as printed); T6H derived by comparing it with the table's wild-type CDR3 AGPMKTSYDKVI = 0
[…] (CDR3 as printed); I12R derived by comparing it with the table's wild-type CDR3 AGPMKTSYDKVI = 0
[…] (CDR3 as printed); S7P derived by comparing it with the table's wild-type CDR3 AGPMKTSYDKVI = 0
[…] (CDR3 as printed); D9R derived by comparing it with the table's wild-type CDR3 AGPMKTSYDKVI = 0
[…] (CDR3 as printed); M4N derived by comparing it with the table's wild-type CDR3 AGPMKTSYDKVI = 0
[…] (CDR3 as printed); D9M derived by comparing it with the table's wild-type CDR3 AGPMKTSYDKVI = 0.433
[…] (CDR3 as printed); V11Q derived by comparing it with the table's wild-type CDR3 AGPMKTSYDKVI = 0
[…] (CDR3 as printed); A1E derived by comparing it with the table's wild-type CDR3 AGPMKTSYDKVI = 0.186
[…] (CDR3 as printed); M4E derived by comparing it with the table's wild-type CDR3 AGPMKTSYDKVI = 27
[…] (CDR3 as printed); G2K derived by comparing it with the table's wild-type CDR3 AGPMKTSYDKVI = 0
[…] (CDR3 as printed); Y8Q derived by comparing it with the table's wild-type CDR3 AGPMKTSYDKVI = 0
[…] (CDR3 as printed); S7H derived by comparing it with the table's wild-type CDR3 AGPMKTSYDKVI = 0
[…] (CDR3 as printed); M4F derived by comparing it with the table's wild-type CDR3 AGPMKTSYDKVI = 0
[…] (CDR3 as printed); K5I derived by comparing it with the table's wild-type CDR3 AGPMKTSYDKVI = 3.95
